Each entry below carries its reported pIC50.
biological target: human PDE11A2 (Homo sapiens, UniProt Q9HCR9, DUP921-921); assay: Inhibition of human PDE11A2 activity by known PDE inhibitors (radio-labeled nucleotide method)
Sequence (Q9HCR9 with tags, fused parts or gaps isoform Q9HCR9-2 DUP671-671): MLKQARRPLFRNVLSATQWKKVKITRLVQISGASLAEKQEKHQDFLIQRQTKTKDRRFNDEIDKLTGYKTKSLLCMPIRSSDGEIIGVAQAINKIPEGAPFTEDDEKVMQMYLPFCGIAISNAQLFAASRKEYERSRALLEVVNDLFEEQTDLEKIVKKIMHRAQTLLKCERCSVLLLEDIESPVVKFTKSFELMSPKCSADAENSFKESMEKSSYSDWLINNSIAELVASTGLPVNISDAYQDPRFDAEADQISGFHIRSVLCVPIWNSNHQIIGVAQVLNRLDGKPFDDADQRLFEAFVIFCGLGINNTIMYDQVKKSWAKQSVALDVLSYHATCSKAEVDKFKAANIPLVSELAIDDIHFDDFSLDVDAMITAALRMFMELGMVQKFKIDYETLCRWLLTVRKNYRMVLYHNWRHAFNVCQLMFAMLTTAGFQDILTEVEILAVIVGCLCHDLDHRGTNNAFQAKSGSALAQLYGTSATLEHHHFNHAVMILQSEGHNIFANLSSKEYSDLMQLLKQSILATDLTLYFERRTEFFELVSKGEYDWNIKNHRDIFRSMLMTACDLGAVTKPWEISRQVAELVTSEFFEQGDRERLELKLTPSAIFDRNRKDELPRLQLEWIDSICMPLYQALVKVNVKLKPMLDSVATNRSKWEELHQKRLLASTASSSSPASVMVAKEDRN
pIC50: −log10 of the molar value.

# molecule, propertyLabel, readoutValue
records = [
    ("COc1ccc(C2CNC(=O)C2)cc1OC1CCCC1 (centres unmarked) [Rolipram]", "pIC50", "< 4.00"),
]

Turning now to a further molecule:
Which value of pIC50 has been reported for Cc1[nH]c(=O)c(C#N)cc1-c1ccncc1 [Milrinone] in the records?
< 4.00

---

Each entry below carries its reported pIC50.
biological target: human PDE11A1 (Homo sapiens, UniProt Q9HCR9, DUP921-921/R184Q); test: Inhibition of human PDE11A1 activity by known PDE inhibitors (radio-labeled nucleotide method); conditions: read-out: IC50 value for human PDE11A1 activity, effect on cGMP hydrolysis activity; substrate 1.3 μM unlabeled cGMP; inhibitor 0-100 μM; recombinant enzyme from COS-7 cells
Sequence (Q9HCR9 with tags, fused parts or gaps R184Q/DUP921-921): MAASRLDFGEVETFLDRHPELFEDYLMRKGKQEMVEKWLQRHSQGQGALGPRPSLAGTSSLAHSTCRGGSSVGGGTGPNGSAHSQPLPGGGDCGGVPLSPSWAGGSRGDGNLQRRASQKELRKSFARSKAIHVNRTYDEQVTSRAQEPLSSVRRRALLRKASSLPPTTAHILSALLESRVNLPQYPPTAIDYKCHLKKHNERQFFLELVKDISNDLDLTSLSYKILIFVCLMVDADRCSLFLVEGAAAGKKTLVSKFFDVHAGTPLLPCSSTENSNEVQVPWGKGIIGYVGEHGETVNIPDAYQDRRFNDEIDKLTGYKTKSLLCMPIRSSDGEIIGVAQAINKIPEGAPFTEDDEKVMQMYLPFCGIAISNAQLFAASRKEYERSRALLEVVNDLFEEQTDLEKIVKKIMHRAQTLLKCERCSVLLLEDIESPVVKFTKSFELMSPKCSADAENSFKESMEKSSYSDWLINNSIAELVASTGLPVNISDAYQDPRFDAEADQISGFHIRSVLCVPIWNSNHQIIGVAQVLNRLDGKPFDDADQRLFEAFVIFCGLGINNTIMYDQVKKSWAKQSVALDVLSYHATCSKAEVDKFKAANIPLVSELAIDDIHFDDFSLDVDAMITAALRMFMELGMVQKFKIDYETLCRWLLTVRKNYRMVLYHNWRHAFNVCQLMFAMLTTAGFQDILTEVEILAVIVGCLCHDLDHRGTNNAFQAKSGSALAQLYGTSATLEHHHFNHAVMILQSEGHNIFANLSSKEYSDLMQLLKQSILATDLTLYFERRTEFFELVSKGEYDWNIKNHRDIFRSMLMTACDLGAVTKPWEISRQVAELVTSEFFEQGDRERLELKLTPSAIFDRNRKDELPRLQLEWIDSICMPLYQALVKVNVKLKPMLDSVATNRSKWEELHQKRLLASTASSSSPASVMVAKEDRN
pIC50: −log10 of the molar value.

# compound, studyTarget, pIC50
data = [
    ("CCOC(=O)C1=C[C@]2(CC)CCCN3CCc4c(n1c1ccccc41)[C@@H]32 [Vinpocetine]", "human PDE11A1 (Homo sapiens, UniProt Q9HCR9, DUP921-921/R184Q)", "< 4.00"),
    ("COc1ccc(C2CNC(=O)C2)cc1OC1CCCC1 (stereo not drawn) [Rolipram]", "human PDE11A1 (Homo sapiens, UniProt Q9HCR9, DUP921-921/R184Q)", "< 4.00"),
]

Which value of pIC50 has been reported for Cc1[nH]c(=O)c(C#N)cc1-c1ccncc1 [Milrinone] in the records?
< 4.00

---

molecular target: human PDE11A1 (Homo sapiens, UniProt Q9HCR9, DUP921-921/R184Q); assay: Inhibition of human PDE11A1 activity by known PDE inhibitors (radio-labeled nucleotide method)
Each entry below carries its reported IC50.

Worked cases, answers included:
# compound, IC50
rows = [
    ("Cc1[nH]c(=O)c(C#N)cc1-c1ccncc1", "> 100 µM"),
    ("COc1ccc(C2CNC(=O)C2)cc1OC1CCCC1 (stereo not shown)", "> 100 µM"),
    ("O=C(O)C1CCN(c2nc(NCc3ccc4c(c3)OCO4)c3cc(Cl)ccc3n2)CC1", "1.8 µM"),
]

Which value of IC50 has been reported for CCOC(=O)C1=C[C@]2(CC)CCCN3CCc4c(n1c1ccccc41)[C@@H]32 in the records?
> 100 µM
